Assay: Permeability across human Caco2 cells
Format: ADME, cell-based
Conditions: Caco-2, read-out: permeability
VALUE TYPE: Papp (×10⁻⁶ cm/s)
Just the number please, in ×10⁻⁶ cm/s, no unit attached.

Req: Query: Papp; subject: "O=C(Nc1ccc(/C=C/c2ccc(NC(=O)[C@@H]3CCCN3C(=O)Cc3cccnc3)cc2)cc1)[C@@H]1CCCN1C(=O)Cc1cccnc1"
Resp: 1.6

Req: Query: Papp; subject: "O=C(Nc1ccc(/C=C/c2ccc(NC(=O)[C@@H]3C[C@@H](O)CN3C(=O)OCc3ccccc3)cc2)cc1)[C@@H]1C[C@@H](O)CN1C(=O)OCc1ccccc1"
Resp: 3.5

Req: Query: Papp; subject: "O=C(Nc1ccc(/C=C/c2ccc(NC(=O)[C@@H]3CCCN3C(=O)CC3CC3)cc2)cc1)[C@@H]1CCCN1C(=O)CC1CC1"
Resp: 0.4

###

Assay: Solubility of the compound
Type: physicochemical
# key: entry, value: solubility
Just the number please, in µg/mL, no unit attached.

- SMILES DATA: "O=C(Nc1ccc(/C=C/c2ccc(NC(=O)[C@@H]3CCCN3C(=O)Cc3cccnc3)cc2)cc1)[C@@H]1CCCN1C(=O)Cc1cccnc1"
  OBSERVED: 53

Could you now consider this next molecule?
Req: Query: solubility; subject: "O=C(Nc1ccc(/C=C/c2ccc(NC(=O)[C@@H]3CCCN3C(=O)CC3CC3)cc2)cc1)[C@@H]1CCCN1C(=O)CC1CC1"
Resp: 4.4

###

# key: entry, value: CC50 at 72 h
Assay: Cytotoxicity against human HuH7 cells after 72 hrs by Alamar Blue assay
Format: cell-based
Details: Huh-7 cells

Sample answers from the record:
- SMILES DATA: "CC(=O)N[C@@H](C)C(=O)Nc1ccc(/C=C/c2ccc(NC(=O)[C@@H]3CCCN3C(=O)Cc3ccccc3)cc2)cc1"
  OBSERVED: "> 10 µM"
- SMILES DATA: "O=C(Nc1ccc(/C=C/c2ccc(NC(=O)[C@@H]3CCCN3C(=O)c3ccc4occc4c3)cc2)cc1)[C@@H]1CCCN1C(=O)c1ccc2occc2c1"
  OBSERVED: "> 10 µM"
- SMILES DATA: "O=C(Nc1ccc(/C=C/c2ccc(NC(=O)[C@@H]3[C@H]4CCC[C@H]4CN3C(=O)OCc3ccccc3)cc2)cc1)[C@@H]1[C@H]2CCC[C@H]2CN1C(=O)OCc1ccccc1"
  OBSERVED: "> 10 µM"
- SMILES DATA: "CCO[C@H]1C[C@@H](C(=O)Nc2ccc(/C=C/c3ccc(NC(=O)[C@@H]4C[C@H](OCC)CN4C(=O)OCc4ccccc4)cc3)cc2)N(C(=O)OCc2ccccc2)C1"
  OBSERVED: "> 10 µM"

Req: Query: CC50 at 72 h; subject: "O=C(Nc1ccc(/C=C/c2ccc(NC(=O)[C@@H]3CCCN3C(=O)c3ccc4ccccc4c3)cc2)cc1)[C@@H]1CCCN1C(=O)c1ccc2ccccc2c1"
Resp: > 10 µM

Req: Query: CC50 at 72 h; subject: "O=C(Nc1ccc(/C=C/c2ccc(NC(=O)[C@@H]3CCCN3C(=O)OCc3ccccc3)cc2)cc1)[C@@H]1CCCN1C(=O)OCc1ccccc1"
Resp: > 10 µM

Req: Query: CC50 at 72 h; subject: "Cc1nc2sccn2c1C(=O)N1CCC[C@H]1C(=O)Nc1ccc(/C=C/c2ccc(NC(=O)[C@@H]3CCCN3C(=O)c3c(C)nc4sccn34)cc2)cc1"
Resp: > 10 µM
